- system: T1, AAV5 (adeno-associated virus 5)
- T1 construct: also called adeno-associated virus serotype 5
- protocol-summary: SPR, AAV amine-coupled to CM5 chip;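 also: nanobodies flowed as analyte at seven concentrations spanning 1–100 nM over immobilized AAV (500–800 RU), kinetic constants derived by fitting the binding curves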
test-readout: koff (s⁻¹)
I only need the number, in s⁻¹, no unit after it.

Below: 7 binders and their reported koff.
binder	measurement-unit	meas-value
A4-066 (VHH) VHH: VQLQESGGGLVQTGGSLRLSCAASGRAFSLNTMGWYRQAPGKQRELVATVTRGGSTNYAGSVKGRFTISRDNAKNTVYLQMNSLRPEDTAVYYCHVDEVRESSWTTSNLWGQGTQVTVSS	s⁻¹	0.00191
A4-054 (VHH) VHH: VQLQESGGGLVQPGGSLRLSCAASGSAFSINTMGWYRQAPGKQRELVAAVTRGGSTNYADSVKGRFTISRDNAKNTVYLQMNSLRPEDTAVYYCHVDEVRQSSWTTSNLWGQGTQVTVSS	s⁻¹	0.00163
A4-079 (VHH) VHH: VQLQESGGGLVQPGGSLRLSCAASGTRFSINTMGWYRQAPGKQRELVANVTPAGSTNYADSVKGRFTISRDNAKNTVYLQMNSLRPEDTAVYYCHVDELRDSSWTTSNLWGQGTQVTVSS	s⁻¹	0.00083
A4-097 (VHH) VHH: VQLQESGGGLVQPGGSLRLSCIASGSIFSANTMGWYRQAPGKQRELVATITRGGNTNYGDSVKGRFTISRDNAKNTVYLQMNTLRPEDTAVYYCHVDEIRESSWTTSNLWGQGTQVTVSS	s⁻¹	0.00544
A4-085 (VHH) VHH: VQLQESGGGLVQPGGSLRLSCAASGSRFSLNTMGWYRQAPGKQREFVAAVTRGGNTNYGDFVKGRFTISRDNAKNTVYLQMNSLRPEDTAVYYCHVDELRESSWTTSNLWGQGTQVTVSS	s⁻¹	0.00191
A4-084 (VHH) VHH: VQLQESGGGLVQPGGSLKLSCAASGSRFSLNTMGWYRQAPRKQREFVAAVTRGGNTNYGDFVKGRFTISRDNAKNTVYLQMNSLRPEDTAVYYCHVDELRESSWTTSNLWGQGTQVTVSS	s⁻¹	6e-05
A4-087 (VHH) VHH: VQLQESGGGLVQPGGSLRLSCAASGSRFSLNTMGWYRQAPGKQRELVAAVTRGGNTNYGDFVKGRFTISRDNAKNTVYLQMNSLRPEDTAVYYCHVDELRESSWTTSNLWGQGTQVTVSS	s⁻¹	0.0003

Please turn your attention to the following entry.
What the record says about A4-072 (VHH) VHH: VQLQESGGGLAQPGGSLRLSCAASGSSFVINTMGWYRQAPGKQREFVATVTRGGSTNYGEFVKGRFTISRDNAKNTVYLQMNSLRPEDTAVYYCHVDELRQSSWTTSNLWGQGTQVTVSS : koff is 0.00038
